tested on: ATP; test: switch fluorescence ratio, 500 uM ATP over buffer (Cy3 cluster intensity, sum of 5 cycles each) (fold (ratio)); higher = stronger signal-on switching upon ATP binding; sequences stand for … in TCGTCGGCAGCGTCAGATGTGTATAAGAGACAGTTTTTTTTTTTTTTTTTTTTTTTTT…TC; conditions: aptamer strand: ATP DNA aptamer (quencher-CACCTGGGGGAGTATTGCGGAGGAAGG + anchor), 100 nM annealed; ATP concentration: 500 uM;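 also: ATP exposure 15 min at 22 °C before imaging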
Measurement Type: switch fluorescence ratio
Reply with the value as a number alone.

GAAATCGCTG ... 0.97
GCCTGGGACC ... 0.996
CGGCTTGATA ... 1.01
CTGGGGGGTC ... 1.24
TTCTGCGGCT ... 1.12

Ask: Quote ATP switch fluorescence ratio for entry AAGGTTTTGC .
Reply: 0.99

Ask: Send back ATP switch fluorescence ratio of GGAGCTTTGG only.
Reply: 0.998

Ask: Check ATP data and give switch fluorescence ratio for TCAGGGGAGG .
Reply: 1.03

Ask: Lab note: record switch fluorescence ratio of AGTCTTGGTG tested on ATP.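 Also: ATP exposure 15 min at 22 °C before imaging.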
Reply: 0.973

Ask: State measured switch fluorescence ratio of the sequence TCATGCAAAT with ATP.
Reply: 1.04

Ask: Send back ATP switch fluorescence ratio of TTAAAGCGTG only.
Reply: 0.969

Ask: Quote ATP switch fluorescence ratio for entry GCACGCTAGG .
Reply: 1.07

Ask: Report value: switch fluorescence ratio, system: ATP, sequence: AGCCTGTATG;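 also: ATP exposure 15 min at 22 °C before imaging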
Reply: 0.954

Ask: Specify the recorded switch fluorescence ratio for TTCCTTAGCG , system: ATP.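 Also: ATP exposure 15 min at 22 °C before imaging.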
Reply: 1.03

Ask: # return switch fluorescence ratio of GCTGCGGGCC (system: ATP);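 also: ATP exposure 15 min at 22 °C before imaging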
Reply: 1.02

Ask: Lab note: record switch fluorescence ratio of GGGGTTCGTG tested on ATP.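 Also: ATP exposure 15 min at 22 °C before imaging.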
Reply: 0.975

Ask: Please report switch fluorescence ratio with ATP for item TAGGGTTGGT .
Reply: 1.01

Ask: Print ATP switch fluorescence ratio for TTTATGGCTG .
Reply: 0.987
